Kindly supply the reported shrunken log2 fold change values for the records listed here.
# Tested on: Escherichia coli TOP10
# assay_overview: shrunken log2 fold change of peptide-encoding DNA abundance (4.5 h post-induction vs induction); higher = less antimicrobial activity (less host growth inhibition)
# test_settings: time post-induction: 4.5 h; library: site-saturation at positions 5, 18, 19, 20
Give bare numbers.

>  <seq_string>
RRIRTRPPRLPRPRPRPQINPRP

>  <observed_value>
-0.348

$$$$

Please state, for each entry, its recorded shrunken log2 fold change.
1. RRIRERPPRLPRPRPRPQIEPRP
2. RRIRVRPPRLPRPRPRPFMCPRP

A)
1: -0.208; 2: -0.325

Please state, for each entry, its recorded shrunken log2 fold change.
1. RRIRKRPPRLPRPRPRPIIDPRP
2. RRIRRRPPRLPRPRPRPHKVPRP

A)
-0.139
0.0772

Please state, for each entry, its recorded shrunken log2 fold change.
1. RRIRGRPPRLPRPRPRPLYRPRP
2. RRIRARPPRLPRPRPRPDMTPRP

A)
1.11
0.723

Please state, for each entry, its recorded shrunken log2 fold change.
1. RRIRARPPRLPRPRPRPGWLPRP
2. RRIRNRPPRLPRPRPRPCGSPRP
3. RRIRRRPPRLPRPRPRPELLPRP
4. RRIRCRPPRLPRPRPRPNYDPRP
5. RRIRVRPPRLPRPRPRPPGYPRP
6. RRIRQRPPRLPRPRPRPLIWPRP
7. RRIRRRPPRLPRPRPRPVNCPRP
8. RRIRRRPPRLPRPRPRPKKWPRP

A)
1. 0.285
2. -0.0353
3. 0.147
4. -0.672
5. 0.0333
6. 0.855
7. 0.148
8. 0.114

Please state, for each entry, its recorded shrunken log2 fold change.
1. RRIRHRPPRLPRPRPRPCNYPRP
2. RRIRKRPPRLPRPRPRPGPKPRP
3. RRIRWRPPRLPRPRPRPKFAPRP
4. RRIRCRPPRLPRPRPRPLKRPRP

A)
-0.084
1.15
0.453
-0.052

Please state, for each entry, its recorded shrunken log2 fold change.
1. RRIRIRPPRLPRPRPRPMSEPRP
2. RRIRERPPRLPRPRPRPVERPRP
3. RRIRVRPPRLPRPRPRPANAPRP
4. RRIRARPPRLPRPRPRPGWVPRP
5. RRIRARPPRLPRPRPRPRWYPRP
6. RRIRRRPPRLPRPRPRPSEPPRP
7. RRIRMRPPRLPRPRPRPMQCPRP
8. RRIRVRPPRLPRPRPRPRKCPRP

A)
1: -0.00782; 2: -0.00844; 3: -0.0677; 4: 0.29; 5: -0.0331; 6: 0.115; 7: -0.0018; 8: -0.0338

Please state, for each entry, its recorded shrunken log2 fold change.
1. RRIRCRPPRLPRPRPRPSWLPRP
2. RRIRCRPPRLPRPRPRPDVVPRP
3. RRIRDRPPRLPRPRPRPVNVPRP

A)
1. -0.547
2. -0.00174
3. -0.96

Please state, for each entry, its recorded shrunken log2 fold change.
1. RRIRSRPPRLPRPRPRPQYWPRP
2. RRIRGRPPRLPRPRPRPVGKPRP

A)
1: -0.397; 2: 0.646

====

# Test system: Escherichia coli TOP10;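 further: peptides expressed intracellularly from a pBAD plasmid library in pooled LB shake-flask culture, induced with 0.3% L-arabinose, DNA abundance read by NGS, three biological replicates, DESeq2 with apeglm shrinkage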
# assay_overview: shrunken log2 fold change of peptide-encoding DNA abundance (4.5 h post-induction vs induction); higher = less antimicrobial activity (less host growth inhibition)
# test_settings: time post-induction: 4.5 h; library: site-saturation at positions 5, 18, 19, 20
Tick y if shrunken log2 fold change is 0.03 or greater. Tick n if shrunken log2 fold change is less than 0.03.

Record excerpt, results attached:
>  <seq_string>
RRIRCRPPRLPRPRPRPCCEPRP

>  <group>
y

$$$$
>  <seq_string>
RRIRGRPPRLPRPRPRPCGGPRP

>  <group>
y

$$$$
>  <seq_string>
RRIRSRPPRLPRPRPRPKNVPRP

>  <group>
n

$$$$

Q) Is it the case that RRIRFRPPRLPRPRPRPHSCPRP has shrunken log2 fold change reaching or exceeding 0.03?
A) n

Q) Is it the case that RRIRSRPPRLPRPRPRPNDSPRP has shrunken log2 fold change reaching or exceeding 0.03?
A) n

Q) Is it the case that RRIRERPPRLPRPRPRPNRCPRP has shrunken log2 fold change reaching or exceeding 0.03?
A) n

Q) Is it the case that RRIRMRPPRLPRPRPRPMGKPRP has shrunken log2 fold change reaching or exceeding 0.03?
A) n

Q) Is it the case that RRIRLRPPRLPRPRPRPLQEPRP has shrunken log2 fold change reaching or exceeding 0.03?
A) n

Q) Is it the case that RRIRIRPPRLPRPRPRPWICPRP has shrunken log2 fold change reaching or exceeding 0.03?
A) n

Q) Is it the case that RRIRVRPPRLPRPRPRPMWAPRP has shrunken log2 fold change reaching or exceeding 0.03?
A) y

Q) Is it the case that RRIRSRPPRLPRPRPRPNQPPRP has shrunken log2 fold change reaching or exceeding 0.03?
A) y

Just for reference, the supplement of paper PMC9112550 is where these values come from.
